Biological target: Neu5Ac(a2-6)Gal(b1-4)GlcNAc6S
Assay: glycan array binding signal (z-score within array); higher = stronger binding
Conditions: glycan notation: IUPAC condensed, linker removed
Many of the other results were omitted from the sample, so the strongest signals are more common in it than they were.
Could you label it rule met if measured glycan array binding signal (z-score) is 0.6 or higher, and rule not met otherwise?

{"BINDER": "DGL (Dioclea grandiflora), P08902 (protein) ADTIVAVELDSYPNTDIGDPNYPHIGIDIKSIRSKSTARWNMQTGKVGTVHISYNSVAKRLSAVVSYSGSSSTTVSYDVDLNNVLPEWVRVGLSATTGLYKETNTILSWSFTSKLKTNSIADENSLHFSFHKFSQNPKDLILQGDAFTDSDGNLELTKVSSSGDPQGNSVGRALFYAPVHIWESSAVVASFDATFTFLIKSPDREPADGITFFIANTDTSIPSGSGGRLLGLFPDAN", "LABEL": "rule not met"}
{"BINDER": "HHL-2 (Homo sapiens), P07307 (protein) MAKDFQDIQQLSSEENDHPFHQGEGPGTRRLNPRRGNPFLKGPPPAQPLAQRLCSMVCFSLLALSFNILLLVVICVTGSQSEGHRGAQLQAELRSLKEAFSNFSSSTLTEVQAISTHGGSVGDKITSLGAKLEKQQQDLKADHDALLFHLKHFPVDLRFVACQMELLHSNGSQRTCCPVNWVEHQGSCYWFSHSGKAWAEAEKYCQLENAHLVVINSWEEQKFIVQHTNPFNTWIGLTDSDGSWKWVDGTDYRHNYKNWAVTQPDNWHGHELGGSEDCVEVQPDGRWNDDFCLQVYRWVCEKRRNATGEVA", "LABEL": "rule met"}
{"BINDER": "EPL1 (Trichoderma atroviride), A0PCX2 (protein) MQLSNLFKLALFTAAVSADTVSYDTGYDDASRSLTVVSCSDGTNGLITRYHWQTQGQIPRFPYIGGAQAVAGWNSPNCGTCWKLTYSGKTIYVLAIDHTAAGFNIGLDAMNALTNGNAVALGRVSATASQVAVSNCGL", "LABEL": "rule met"}

# input for lookup
Query: Does the binder Clec12b (Mus musculus), Q149M0 (protein) MSDEVTYATLMLQDSARVRGNQDGNNLRKEGHPAQSSLWRGAALSLMTLCLVLVTGLVTLATMFLQVSNDINSDSEKLSQLQKSIHPQQDNLSESLNSSRKSLTEESLQSQISALLERQEQMATKLCKEFLIHASDHKCNPCPKTWQWYGNSCYYFSINEEKSWSDSRKDCIDKNATLVKIDSTEERDLLQSQLSLTFSFFWLGLSWNSSGRNWLWEDGSFPPPTLFSDKELASFNGSRDCAYFERGNIYASRCSAEIPWICEKTASLVKTEDLD have recorded glycan array binding signal (z-score) that is 0.6 or more?
Response: rule not met
